Literature survey of IC50 (system: Vascular endothelial growth factor receptor 2 (Homo sapiens)).
endpoint_label: IC50

Nc1nc(Nc2cncc3ccccc23)nn1-c1ccccn1: 0.02 µM
Cn1cc(-c2cc(Oc3ccc(NC(=O)Nc4ccc(Cl)c(C(F)(F)F)c4)c(F)c3)ncn2)cn1: ≤ 10 µM
CS(=O)(=O)NCCCOc1cc2nccc(Oc3ccc(NC(=O)Nc4ccc(F)cc4)c(F)c3)c2cc1C#N: 0.021 µM
COCCOc1cc2ncnc(Oc3ccc(NC(=O)Nc4cc(C(F)(F)F)ccc4F)cc3)c2c2c1OCCO2: < 0.05 µM
Cn1cc(-c2cnc3[nH]cc(Cc4cc(F)c(OCc5nc6ccccc6[nH]5)cc4Cl)c3c2)cn1: ≤ 10 µM
COc1ccc(C(=O)c2c[nH]c3ncc(-c4cccs4)cc23)cc1: ≤ 10 µM
NC(=O)c1c(-c2ccncc2)nn(-c2c(Cl)cc(Cl)cc2Cl)c1N: 31 µM
O=C(Nc1cccc(Oc2cc(-c3ncn[nH]3)ncn2)c1)Nc1ccc(Cl)c(C(F)(F)F)c1: ≤ 10 µM

====

Literature survey of IC50 (system: Vascular endothelial growth factor receptor 2 (Homo sapiens, UniProt P35968)).
endpoint_label: IC50

COCCOCCOCCOCCOCCOCCOCCOCCNC(=O)c1c(C)[nH]c(/C=C2\C(=O)Nc3ccc(F)cc32)c1C: 430 nM
O=C(Nc1ccc(Oc2ncnc3cc(OCCCN4CCS(=O)(=O)CC4)c4c(c23)OCCO4)cc1)Nc1cc(C(F)(F)F)ccc1F: < 50 nM
C[C@@H](Nc1ncnc2[nH]c(-c3ccc(CN4CCN(CCCCC(=O)NO)CC4)cc3)cc12)c1ccccc1: 100 to 1000 nM
O=C(c1cc(NS(=O)(=O)c2cccc(C(F)(F)F)c2)ccc1F)c1c[nH]c2ncc(Cl)cc12: ≤ 10000 nM
COc1ncc(F)cc1CNc1ccc(Cc2c[nH]c3ncnc(OC)c23)c(F)n1: ≤ 10000 nM
C[C@]12O[C@H]([C@H](O)[C@H](O)[C@H]1O)n1c3ccccc3c3c4c(c5c6ccccc6n2c5c31)C(=O)NC4=O: 3.7 nM
Cc1c(O)cccc1C(=O)c1c[nH]c2ncc(Br)cc12: ≤ 10000 nM
O=C(O)/C=C/c1cccc(-c2ccnc3[nH]cc(C(=O)c4ccccc4F)c23)c1: ≤ 10000 nM
Cc1ccc(CNc2ccc(Cc3c[nH]c4ncncc34)c(F)n2)nc1: ≤ 10000 nM
Nc1ccc(-c2cc(-c3cc(-c4ccc(O)cc4)ccc3O)nc(N)n2)cc1: < 1000 nM
CS(=O)(=O)c1cc(NC(=O)Nc2ccc(Oc3ccnc(NC(=O)C4CC4)c3)cc2)cc(C(F)(F)F)c1: 7.6 nM
Cn1cc(C(=O)Nc2ccc(Oc3ccnc4cc(OCC(C)(C)O)c5c(c34)OCCO5)c(F)c2)c(=O)n(-c2ccc(F)cc2)c1=O: 500 to 5000 nM
COCCOc1cc2ncnc(Nc3ccc(NC(=O)NC(C)C)c(Cl)c3)c2c2c1OCCO2: 50 to 500 nM
Cc1cc(NC(=O)Nc2ccc(Oc3ccnc(-c4cnn(C)c4)n3)cc2)no1: ≤ 10000 nM
Cc1cc(Oc2cc(NC(=O)C3CC3)ncn2)ccc1NC(=O)Nc1ccc(NC2CCN(C)CC2)c(C(F)(F)F)c1: 13.3 nM

====

Literature survey of IC50 (system: Vascular endothelial growth factor receptor 2 (Homo sapiens, UniProt P35968)).
endpoint_label: IC50

C#Cc1ccnc2[nH]cc(C(=O)c3c(F)ccc(NS(=O)(=O)c4ccc(C(F)(F)F)cc4)c3F)c12: ~1000 nM
COc1ccc(CNc2ncc(Cc3c[nH]c4ncncc34)cc2F)cn1: ≤ 10000 nM
COc1cc2nccc(Oc3ccc(NC(=O)c4cn(C)c(=O)n(-c5ccc(F)cc5)c4=O)cc3)c2c2c1OCCO2: 500 to 5000 nM
Cc1cc(NC(=O)Nc2ccc(F)c(C(F)(F)F)c2)cc(Oc2cc(NC(=O)C3CC3)ncn2)c1: 192 nM
Cc1ccnc(CNc2ccc(Cc3c[nH]c4ncncc34)c(F)n2)c1: ≤ 10000 nM
C=CC(=O)NCCOc1cc2ncnc(Nc3ccc(Br)cc3F)c2cc1NC(=O)C=C: 250 nM
Cn1cc(-c2cc(-c3ccc(N4C[C@@H]5[C@@H](CNC(=O)c6ncccc6C(F)(F)F)[C@@H]5C4)nc3)c3c(C#N)cnn3c2)cn1: ≤ 10 nM
Cc1c(Nc2ccnc3cc(-c4ccccc4)oc23)ccc2[nH]ccc12: 300 to 3000 nM
CN1CCC(c2ccc(C(=O)Nc3n[nH]c4cc(Nc5c(F)cccc5Cl)ccc34)cc2)CC1: 105 nM
CNC(=O)Cn1cc(-c2cc(Oc3cccc(NC(=O)Nc4ccc(Cl)c(C(F)(F)F)c4)c3)ncn2)cn1: ≤ 10000 nM
C=CC(=O)Nc1cc2c(Nc3ccc(Br)cc3F)ncnc2cc1OCCNC(=O)N1CCOCC1: 197 nM
COc1ccc(S(=O)(=O)Nc2ccc(F)c(C(=O)c3c[nH]c4ncc(Cl)cc34)c2F)cc1F: ≤ 10000 nM
CCCS(=O)(=O)Nc1ccc(F)c(C(=O)c2c[nH]c3ncc(-c4ccc(OC)nc4OC)cc23)c1F: ≤ 10000 nM
Cn1cc(-c2cnc3[nH]cc(Cc4cc(F)c(O)cc4F)c3c2)cn1: ≤ 10000 nM
COc1cc(OC)cc(N(CCCO)c2ccc3ncc(-c4ccnc(NC(=O)OC(C)(C)C)c4)nc3c2)c1: > 1000 nM
COc1cc(OC)cc(N(CC2CC2)c2ccc3ncc(-c4ccccc4)nc3c2)c1: > 1000 nM
